biological target: Cyclin E/CDK2 (Homo sapiens, UniProt P24941); construct: made in house; host or cells: SF9 cells, baculovirus co-infection; assay: In Vitro Cyclin E/CDK2 Kinase Assay; assay type: biochemical
measure: IC50 (µM)
Answers are plain numbers, in µM.

QUERY: Record request: IC50 value, item Nc1c(Br)c(N2CCC(CC(=O)O)CC2)nc2c(-c3cnc4ccccc4c3)cnn12 [Compound 10.47]
RESULT: 10

---

biological target: mTOR enzyme (Homo sapiens, UniProt P42345); assay: mTOR Kinase Assay; type: biochemical
Would you mind telling me the reported pIC50 of each entry?
Numbers only, as −log10 of the molar value.

Consider the worked cases shown below.
compound	meas-value
N#Cc1c(C2CCC(CC(=O)O)CC2)nc2c(-c3cnc4ccccc4c3)cnn2c1N (centres unmarked)	8.85
Nc1c(Br)c(N2CCC(CC(=O)O)CC2)nc2c(-c3cnc4ccccc4c3)cnn12	7.95
Nc1c(Br)c(-c2ccc(CC(=O)O)cc2)nc2c(-c3cnc4ccccc4c3)cnn12	7.83
Nc1cc(C2CCC(C(=O)O)NC2)nc2c(-c3cnc4ccccc4c3)cnn12 (centres unmarked)	7.91

QUERY: Record request: pIC50 value, item Cn1cc(-c2cnn3c(N)cc(C4CCC(C(=O)O)NC4)nc23)cn1 (centres unmarked)
RESULT: 6.84

---

Would you mind telling me the reported pIC50 of each entry?
target: recombinant His-CHK1 (Homo sapiens); test: CHK1 In Vitro Kinase Assay
pIC50: −log10 of the molar value.

compound	meas-value
Nc1c(Br)c(N2CCN3C(=O)NC(=O)C3C2)nc2c(-c3cnc4ccccc4c3)cnn12 (stereo not shown)	< 5.30

For every record below, what is its pIC50?
1. COC(=O)C1CCC(c2nc3c(-c4cnn(C)c4)cnn3c(N)c2Br)CN1 (stereo not shown)
2. CC(=O)c1c(N2CCS(=O)(=O)CC2)nc2c(-c3cnc4ccccc4c3)cnn2c1N
3. Nc1cc(CN2CCN3C(=O)NC(=O)C3C2)nc2c(-c3cnc4ccccc4c3)cnn12 (stereo not shown)

RESULT:
6.70 to 7.00
< 5.30
< 5.30

For every record below, what is its pIC50?
1. Nc1c(Br)c(CN2CCN3C(=O)NC(=O)C3C2)nc2c(-c3cnc4ccccc4c3)cnn12 (stereo not shown)
2. Nc1c(Br)c(C2CCC(CC(=O)O)CC2)nc2c(-c3cnc4ccccc4c3)cnn12 (single isomer, unassigned)
3. Nc1cc(C2CCC(C(=O)O)NC2)nc2c(-c3cn[nH]c3)cnn12 (stereo not shown)
4. Nc1c(Br)c(CNC2CCOCC2)nc2c(-c3cnc4ccccc4c3)cnn12
5. CS(=O)(=O)NC(=O)C[C@H]1CC[C@H](c2nc3c(-c4cnc5ccccc5c4)cnn3c(N)c2Br)CC1
6. COC(=O)[C@@H]1CC[C@H](c2nc3c(-c4cnc5ccccc5c4)cnn3c(N)c2Br)CN1 (stereo in doubt)
7. CS(=O)(=O)N1CCC(c2nc3c(-c4cnc5ccccc5c4)cnn3c(N)c2Br)C1 (stereo not shown)
8. Nc1c(Br)c(C2CCC(C(=O)O)NC2)nc2c(-c3cnc4ccccc4c3)cnn12 (stereo not shown)

RESULT:
< 5.30
< 5.30
< 5.30
< 5.30
< 5.30
5.30 to 6.00
< 5.30
< 5.30

---

Target: Cyclin E/CDK2 (Homo sapiens, UniProt P24941)
Construct: made in house; host or cells: SF9 cells, baculovirus co-infection
Test: In Vitro Cyclin E/CDK2 Kinase Assay
Assay type: biochemical
Settings: rated A-F
From the text: Cyclin E was cloned into pVL1393 (Pharmingen, La Jolla, Calif.) by PCR, with the addition of 5 histidine residues at the amino-terminal end to allow purification on nickel resin. The expressed protein was approximately 45 kDa. […] The substrate used in these reactions is a biotinylated peptide derived from Histone H1 (from Amersham, UK). […] The radioactive signal can then be measured using, for example, a TopCount 96 well liquid scintillation counter (from Packard/Perkin Elmer Life Sciences).
pIC50: −log10 of the molar value.
measure: pIC50

For every record below, what is its pIC50?
1. Nc1c(Br)c(N2CCCS(=O)(=O)CC2)nc2c(-c3cnc4ccccc4c3)cnn12
2. Nc1c(Br)c(N2CCN3C(=O)NC(=O)CC3C2)nc2c(-c3cnc4ccccc4c3)cnn12 (stereo not drawn)
3. N#CCC1CCC(c2nc3c(-c4cnc5ccccc5c4)cnn3c(N)c2Br)CC1 (stereo not drawn)

RESULT:
1. < 5.30
2. 6.00 to 6.30
3. < 5.30

---

Target: recombinant His-CHK1 (Homo sapiens, UniProt O14757)
Sequence (O14757 1-265 limits assumed): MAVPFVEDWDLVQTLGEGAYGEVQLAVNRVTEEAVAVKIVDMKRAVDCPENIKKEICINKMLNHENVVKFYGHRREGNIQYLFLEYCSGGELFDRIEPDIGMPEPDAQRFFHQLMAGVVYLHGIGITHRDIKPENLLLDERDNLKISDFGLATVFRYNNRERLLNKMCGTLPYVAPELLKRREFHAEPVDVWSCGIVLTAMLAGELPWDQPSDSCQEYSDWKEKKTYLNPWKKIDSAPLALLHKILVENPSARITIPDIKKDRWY
Test: CHK1 In Vitro Kinase Assay
pIC50: −log10 of the molar value.
measure: pIC50

compound	assay-system	pIC50
Nc1c(Br)c([C@H]2CC[C@H](C(=O)O)CC2)nc2c(-c3ccc(-c4ccncc4)nc3)cnn12	recombinant His-CHK1 (Homo sapiens, UniProt O14757)	< 5.30
Nc1c(Br)c(N2CCC[S+]([O-])CC2)nc2c(-c3cnc4ccccc4c3)cnn12 (stereo not shown)	recombinant His-CHK1 (Homo sapiens, UniProt O14757)	< 5.30
COC(=O)[C@@H]1CC[C@H](c2cc(N)n3ncc(-c4cnn(C)c4)c3n2)CN1 (stereo in doubt)	recombinant His-CHK1 (Homo sapiens, UniProt O14757)	6.00 to 6.30

QUERY: Checklist item: pIC50 tested on recombinant His-CHK1 (Homo sapiens, UniProt O14757), entry Cn1cc(-c2cnn3c(N)c(Br)c(C4CCC(C(=O)O)C4)nc23)cn1 (stereo not shown) , value?
RESULT: < 5.30

Source listed as patent US8591943B2.
